Attribution: patent US20240254095A1

Target: human NMDA receptors GluN1 and GluN2A subunits (GluN2A-containing NMDAR) (Homo sapiens, UniProt Q05586+Q12879)
Construct: expressed in transfected cells; host or cells: HEK293 cells, transient liposome transfection of TRE-GluN1-GluN2A, tTA and pCAG-EGFP
Sequence (Q12879 23-1464, other chains not shown): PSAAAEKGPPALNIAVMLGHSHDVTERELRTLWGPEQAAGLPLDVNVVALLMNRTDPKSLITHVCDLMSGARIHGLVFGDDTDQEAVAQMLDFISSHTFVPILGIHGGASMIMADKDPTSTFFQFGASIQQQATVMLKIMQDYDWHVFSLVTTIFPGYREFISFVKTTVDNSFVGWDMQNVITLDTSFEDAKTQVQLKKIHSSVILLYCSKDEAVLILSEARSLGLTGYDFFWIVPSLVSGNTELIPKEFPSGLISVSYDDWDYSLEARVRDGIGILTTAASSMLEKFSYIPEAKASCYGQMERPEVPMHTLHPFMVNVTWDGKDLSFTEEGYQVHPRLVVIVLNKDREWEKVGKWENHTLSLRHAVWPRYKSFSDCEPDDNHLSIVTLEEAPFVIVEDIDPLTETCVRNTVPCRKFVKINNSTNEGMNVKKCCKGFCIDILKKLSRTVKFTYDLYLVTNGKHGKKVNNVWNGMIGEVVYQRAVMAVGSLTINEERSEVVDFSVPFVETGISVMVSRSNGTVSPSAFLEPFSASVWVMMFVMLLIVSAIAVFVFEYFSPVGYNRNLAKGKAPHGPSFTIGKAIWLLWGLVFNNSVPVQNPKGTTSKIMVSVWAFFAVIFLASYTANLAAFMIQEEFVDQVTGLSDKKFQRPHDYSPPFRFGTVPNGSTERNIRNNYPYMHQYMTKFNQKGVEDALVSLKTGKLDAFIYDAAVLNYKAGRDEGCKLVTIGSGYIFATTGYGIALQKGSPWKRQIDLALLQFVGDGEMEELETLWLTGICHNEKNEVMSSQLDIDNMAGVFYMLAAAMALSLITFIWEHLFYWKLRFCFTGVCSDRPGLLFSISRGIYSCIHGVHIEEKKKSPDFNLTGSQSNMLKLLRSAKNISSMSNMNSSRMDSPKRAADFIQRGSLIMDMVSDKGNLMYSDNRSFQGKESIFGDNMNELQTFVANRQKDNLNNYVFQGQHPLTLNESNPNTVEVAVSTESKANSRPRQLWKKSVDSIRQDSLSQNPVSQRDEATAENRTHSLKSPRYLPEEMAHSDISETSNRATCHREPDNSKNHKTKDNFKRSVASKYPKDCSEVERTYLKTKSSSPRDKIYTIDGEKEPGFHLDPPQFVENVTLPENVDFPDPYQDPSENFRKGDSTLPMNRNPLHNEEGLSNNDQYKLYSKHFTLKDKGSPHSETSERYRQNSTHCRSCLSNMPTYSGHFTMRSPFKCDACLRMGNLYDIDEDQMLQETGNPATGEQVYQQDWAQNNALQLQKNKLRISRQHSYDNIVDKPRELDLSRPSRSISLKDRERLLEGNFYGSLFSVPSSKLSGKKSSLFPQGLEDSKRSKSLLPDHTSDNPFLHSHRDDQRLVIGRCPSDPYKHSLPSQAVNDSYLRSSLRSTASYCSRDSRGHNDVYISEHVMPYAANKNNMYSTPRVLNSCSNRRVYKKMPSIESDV
Experiment: cell-based
Details: NMDAR-mediated current, HEK293 cells expressing human GluN1/GluN2A, 100 μM glutamic acid, clamped at −70 mV; compound 10 μM; read-out: current inhibitory percentages
Counter-ions that a name gives are not always drawn.
If the reported inhibition at 10 µM equals or exceeds 80%, assign 1.0. If not, assign 0.0.

Given Cc1ccc(C23CCCCC2OCCN3)cc1 (stereo not drawn) [Compound 14, formate] , state whether its inhibition at 10 µM is at least 80%. 0.0

Given Clc1cccc(C23CCCCC2OCCN3)c1Cl (stereo not drawn) [Compound 26, hydrochloride] , state whether its inhibition at 10 µM is at least 80%. 1.0

Given FC(F)(F)Oc1cccc(C23CCCCC2OCCN3)c1 (stereo not drawn) [Compound 22, hydrochloride] , state whether its inhibition at 10 µM is at least 80%. 0.0

Given CCOc1cccc(C23CCCCC2OCCN3)c1 (stereo not drawn) [Compound 33, hydrochloride] , state whether its inhibition at 10 µM is at least 80%. 0.0

Given Cc1cscc1[C@]12CCCC[C@H]1OCCN2 [Compound 40, hydrochloride] , state whether its inhibition at 10 µM is at least 80%. 1.0

Given Cc1ccccc1C12CCCCC1OCCN2 (stereo not drawn) [Compound 12, formate] , state whether its inhibition at 10 µM is at least 80%. 0.0

----------
Target: human NMDA receptors GluN1 and GluN2A subunits (GluN2A-containing NMDAR) (Homo sapiens, UniProt Q05586+Q12879)
Construct: expressed in transfected cells; host or cells: HEK293 cells, transient liposome transfection of TRE-GluN1-GluN2A, tTA and pCAG-EGFP
Test: cell-based
Conditions: NMDAR-mediated current, HEK293 cells expressing human GluN1/GluN2A, 100 μM glutamic acid, clamped at −70 mV; compound 10 μM; read-out: current inhibitory percentages
Where a name gives a salt, the structure may show the parent alone.
Answer each item with its documented inhibition at 10 µM.
Write down the value, and be sure its unit follows.

// lookup inhibition at 10 µM for Fc1cccc(C23CCCCC2OCCN3)c1 (stereo not drawn) [Compound 3, hydrochloride] 21.2%

// lookup inhibition at 10 µM for Clc1cccc(C23CCCCC2OCCN3)c1 (racemic) [Compound 9, formate] 88.8%

// lookup inhibition at 10 µM for Fc1cccc(C23CCCCC2OCCN3)c1F (stereo not drawn) [Compound 5, formate] 54.5%

// lookup inhibition at 10 µM for CC(C)(C)c1ccc(C23CCCCC2OCCN3)cc1 (stereo not drawn) [Compound 25, hydrochloride] 11.2%

// lookup inhibition at 10 µM for Cc1cccc(C23CCCCC2OCCN3)c1 (stereo not drawn) [Compound 10, formate] 98.3%

// lookup inhibition at 10 µM for Fc1ccc(C23CCCCC2OCCN3)cc1F (stereo not drawn) [Compound 30, hydrochloride] 86.6%

// lookup inhibition at 10 µM for Fc1ccc(Cl)c(C23CCCCC2OCCN3)c1 (stereo not drawn) [Compound 32, hydrochloride] 102%

// lookup inhibition at 10 µM for Clc1cccc([C@@]23CCCC[C@@H]2OCCN3)c1 [Compound 42, hydrochloride] 105%

// lookup inhibition at 10 µM for CCC1CCC2OCCNC2(c2ccccc2)C1 (stereo not drawn) [Compound 8, formate] 28.9%

----------
Target: human NMDA receptors GluN1 and GluN2A subunits (GluN2A-containing NMDAR) (Homo sapiens, UniProt Q05586+Q12879)
Construct: expressed in transfected cells; host or cells: HEK293 cells, transient liposome transfection of TRE-GluN1-GluN2A, tTA and pCAG-EGFP
Test: cell-based
Conditions: NMDAR-mediated current, HEK293 cells expressing human GluN1/GluN2A, 100 μM glutamic acid, clamped at −70 mV; compound 10 μM; read-out: current inhibitory percentages
Counter-ions that a name gives are not always drawn.
Metric: inhibition at 10 µM (%)
Express the result in % but write the number alone.

// lookup inhibition at 10 µM for CC1CCCC2(c3ccccc3)NCCOC12 (stereo not drawn) [Compound 16, formate] 107

// lookup inhibition at 10 µM for COc1ccc(C23CCCCC2OCCN3)c(Cl)c1 (stereo not drawn) [Compound 34, hydrochloride] 48.6

// lookup inhibition at 10 µM for Fc1cccc(C23CCCCC2OCCN3)c1Cl (stereo not drawn) [Compound 29, hydrochloride] 85.7

// lookup inhibition at 10 µM for COc1cccc(C23CCCCC2OCCN3)c1 (stereo not drawn) [Compound 21, hydrochloride] 71.5

// lookup inhibition at 10 µM for Fc1cccc(Cl)c1C12CCCCC1OCCN2 (stereo not drawn) [Compound 36, hydrochloride] 42.5

// lookup inhibition at 10 µM for Fc1ccc(C23CCCCC2OCCN3)cc1 (stereo not drawn) [Compound 4, formate] 83.7

// lookup inhibition at 10 µM for Cc1ccc(C)c(C23CCCCC2OCCN3)c1 (stereo not drawn) [Compound 28, hydrochloride] 87.8

// lookup inhibition at 10 µM for CN1CCOC2CCCCC21c1ccccc1 (stereo not drawn) [Compound 19, hydrochloride] 17.8

// lookup inhibition at 10 µM for CC(C)c1ccccc1C12CCCCC1OCCN2 (stereo not drawn) [Compound 27, hydrochloride] 85.6
